target: human Mac-1 (integrin αMβ2, CD11b/CD18) (human, UniProt P11215 17-1152; P05107 23-769); experiment: flow cytometry, HEK293/Mac-1 cells, PBS (Mock), 10 µg/ml of this antibody; binding of reporter mAb m24 read
The binders listed here are annotated with their m24 (Expression relative to IgG4).

| binder | result |
| --- | --- |
| anti-Mac-1 antibody clone 28A12 (antibody, human IgG4, V domains shown) VH: QVKLQESGPELVKPGASVKISCKASGYSFTDYNMNWVKQSNGKSLEWIGEINPGYGTSRYNQKFKDKATLTVDQSSSTAYMQLNSLTSEDSAVYYCARADVDYGDTMDYWGQGTTVTVSS VL: DIELTQSPAIMSASPGEKVTMTCSASSSVSDMHWYQQKSGNSPKRWIYDTSKLASGVPVRFSGSGSGTSYSLTISSMEAEDAATYYCQQWSSNPPTFGAGTKLELK | 0.88 relative to IgG4 |

// query Give m24 (Expression relative to IgG4) for anti-Mac-1 antibody clone DF3M-5 (antibody, human IgG4, V domains shown) VH: EVQLVESGGGLVQPGGSLRLSCAASGFTFGTYDMHWVRQAPGKGLEWVSMISPSGGDTYYADSVKGRFTISRDNSKNTLYLQMNSLRAEDTAVYYCARDSSGDWYAMAYWGQGTLVTVSS VL: DIQMTQSPSSLSASVGDRVTITCRASQSIRRYLAWYQQKPGKAPKLLIYGASNLQSGVPSRFSGSGSGTDFTLTISSLQPEDFATYYCQHSSDTPLTFGQGTKVEIK
// result 28.4 relative to IgG4

// query Consider the binder anti-Mac-1 antibody clone H4L2 (antibody, human IgG4, V domains shown) VH: QVQLVQSGAEVKKPGASVKVSCKASGYTFTNYWINWVRQAPGQRLEWMGNIYPSDTYINHNQKFKDRVTITRDTSASTAYMELSSLRSEDTAVYYCARSAYANYFDYWGQGTLVTVSS VL: EIVMTQSPATLSVSPGERATLSCRASQNIGTSIHWYQQKPGQAPRLLIYYASESISGIPARFSGSGSGTEFTLTISSLQSEDFAVYYCQQSDSWPTLTFGQGTKLEIK and give its recorded m24 (Expression relative to IgG4).
// result 0.44 relative to IgG4

// query Answer with the recorded m24 (Expression relative to IgG4) of anti-Mac-1 antibody clone DF4-25 (antibody, human IgG4, V domains shown) VH: EVQLVESGGGLVQPGGSLRLSCAASGFTFKDYWLSWVRQAPGKGLEWVSIINYGGSETYYADSVKGRFTISRDNSKNTLYLQMNSLRAEDTAVYYCARTQTSYVMDYWGQGTLVTVSS VL: DIQMTQSPSSLSASVGDRVTITCRASQSVRSGLNWYQQKPGKAPKLLIYAASSLQSGVPRRFSGSGSGTDFTLTISSLQPEDFATYYCMQSHSWPLTFGQGTKVEIK only.
// result 24 relative to IgG4

// query Specify measured m24 (Expression relative to IgG4) for anti-Mac-1 antibody clone 28D06 (antibody, human IgG4, V domains shown) VH: QVKLQQSGPELVKPGASVKISCKASGYSFTDYNMNWVKQSNGKSLEWIGEINPNYGTTRYNQKFKGKATLTVDQSSSTAYMQLNSLTSEDSAVYYCARPSIYYDYDDAMDYWGQGTTVTVSS VL: DIELTQSPAIMSASPGEKVTMTCSASSSVNYMYWYQQKPGSSPRLLIYDTSNLASGVPVRFSGSGSGTSYSLTISRMEAEDAATYYCQQWITYPPTLTFGAGTKLEIK .
// result 0.65 relative to IgG4
